recordedEndpoint: melting point

The following molecules have reported results that may help.
COC(=O)CCc1cc(S(C)(=O)=O)cc(-c2nc(=O)c3ccc(Cl)cc3s2)n1 ... 203.4 to 203.6 °C
CS(=O)(=O)c1cc(CCC(=O)OCC(O)CO)nc(-c2nc(=O)c3ccc(Cl)cc3s2)c1 (stereo not shown) ... 240 to 241 °C
Cc1oc(=O)oc1COC(=O)CCc1cc(S(C)(=O)=O)cc(-c2nc(=O)c3ccc(Cl)cc3s2)n1 ... 183.1 to 183.2 °C

(Q) Assign melting point to the following record: CS(=O)(=O)c1cc(CCC(=O)O)nc(-c2nc(=O)c3ccc(F)cc3s2)c1
(A) 235.8 to 236.2 °C

----------
The entries below are paired with their reported melting point.

# count of solved cases: 7
CS(=O)(=O)c1cc(CCC(=O)O)nc(-c2nc(=O)c3ccc(Cl)cc3s2)c1 [EXAMPLE 8] ... 228.8 to 228.9 °C
CCCOC(=O)CCc1cc(S(C)(=O)=O)cc(-c2nc(=O)c3ccc(Cl)cc3s2)n1 [compound 19] ... 235.4 to 235.5 °C
CCN(CC)CCOC(=O)CCc1cc(S(C)(=O)=O)cc(-c2nc(=O)c3ccc(Cl)cc3s2)n1 [EXAMPLE 22] ... 150.5 to 151.5 °C
Cc1ccc2c(=O)nc(-c3cc(S(C)(=O)=O)cc(CCC(=O)O)n3)sc2c1 [EXAMPLE 12] ... 238.9 to 239.1 °C
CC(C)(C)OC(=O)CCc1cc(S(C)(=O)=O)cc(-c2nc(=O)c3ccc(Cl)cc3s2)n1 [compound 7] ... 184.3 to 184.5 °C
CC(C)(C)OC(=O)CCc1cc(S(C)(=O)=O)cc(-c2nc(=O)c3ccc(F)cc3s2)n1 [compound 9] ... 177.6 to 178 °C
Cc1ccc2c(=O)nc(-c3cc(S(C)(=O)=O)cc(CCC(=O)OC(C)(C)C)n3)sc2c1 [compound 11] ... 178 to 178.4 °C

Switching to the query record.
(Q) Consider the molecule CCOC(=O)CCc1cc(S(C)(=O)=O)cc(-c2nc(=O)c3ccc(Cl)cc3s2)n1 [EXAMPLE 13] and give its recorded melting point.
(A) 240 to 240.2 °C
